# Tested on: L1210 leukemia ip in BDF1 mice, survival T/C
# EXPERIMENT: NCI In Vivo Anticancer Drug Screen. Data for tumor model L1210 Leukemia (intraperitoneal) in B6D2F1 (BDF1) mice
# SETTINGS: endpoint: mean survival time; dose: 50.0 mg/kg/injection; schedule: Q04DX003 (ip); vehicle: saline; higher = longer survival
Toxic doses and inconclusive results are not listed.
PROPERTY MEASURED: T/C

COCc1nnc2ncnc(OC)c2n1
102 % of control
CC[C@H](CC[C@@H](C)[C@H]1CC[C@H]2[C@@H]3CC=C4C[C@@H](O)CC[C@]4(C)[C@H]3CC[C@]12C)C(C)C
98 % of control
C[S+](C)Cc1ccccc1
96 % of control

Task: I'd like to know its T/C. The compound in question is `CN(C)C(=O)NCc1ccco1`
Output: 101 % of control

Task: Follow-up item: `Cc1ccccc1NC1=C(Cl)C(=O)c2ccccc2C1=O`
Output: 93 % of control

Task: Could you do the same for `Clc1ccc2c(Cl)ncnc2c1` , please?
Output: 97 % of control

Task: Now this one: `COC(=O)Nc1cccc(-c2nc3ccc(NC(=O)OC)cc3c(=O)n2-c2ccccc2)c1`
Output: 101 % of control

Task: And the next one, `O=[N+]([O-])c1cc([As](=O)(O)O)ccc1O` ?
Output: 106 % of control

Task: Quick one: `Cc1cc(C)[n+](C)c(C)c1`
Output: 101 % of control

Task: `CCOC(=O)NC1=C(NCCCl)C(=O)C(NC(=O)OCC)=C(NCCCl)C1=O` ?
Output: 104 % of control

Task: Entry to check: `Nc1ncnc2c1ncn2CCCCCCl`
Output: 100 % of control

Task: Request: `COc1ccc(C(=O)NC[n+]2ccccc2)cc1`
Output: 93 % of control

----------
# System: L1210 leukemia ip in BDF1 mice, survival T/C
# EXPERIMENT: NCI In Vivo Anticancer Drug Screen. Data for tumor model L1210 Leukemia (intraperitoneal) in B6D2F1 (BDF1) mice
# SETTINGS: endpoint: mean survival time; dose: 50.0 mg/kg/injection; schedule: Q04DX003 (ip); vehicle: Klucel (hydroxypropylcellulose) (HPC)
# Protocol: The antitumor activity of compounds was measured in mice bearing transplantable tumors. Survival or tumor size were measured and the results are expressed as the measurement made in the treated group (T) divided by the measurement made in the vehicle treated control group (C). The tumor model used in this assay is L1210 Leukemia (intraperitoneal) in B6D2F1 (BDF1) mice
Toxic doses and inconclusive results are not listed. Rule as the data show it: active = T/C of 150% or more; inactive = T/C below 125%.
Respond with a class label; see Y for active, N for inactive

CC(C)(C)C1Sc2nc3ccccc3n2C1=O (stereo not drawn)
N

Task: Hi, do you know how `CCc1ccc(N=Nc2ccc(N(C)C)cc2)cc1` came out in this test?
Output: N

Task: Same question for `COc1ccc(C[n+]2cccc(CNC(=O)COc3ccc(Cl)c(Cl)c3)c2)cc1` please.
Output: N

----------
# System: L1210 leukemia ip in BDF1 mice, survival T/C
# EXPERIMENT: NCI In Vivo Anticancer Drug Screen. Data for tumor model L1210 Leukemia (intraperitoneal) in B6D2F1 (BDF1) mice
# SETTINGS: endpoint: mean survival time; dose: 200.0 mg/kg/injection; schedule: Q01DX009 (ip); vehicle: saline; higher = longer survival
Toxic doses and inconclusive results are not listed.
Attribute: T/C

Before answering, review these 2 worked examples.
COC(=O)n1nc2ccccc2c1N
93 % of control
O=C(Cn1ccc(O)cc1=O)N1CCC2(CC1)SSC1(CCN(C(=O)Cn3ccc(O)cc3=O)CC1)S2
93 % of control

Task: Recorded T/C for `C[n+]1c(O)c(C(=O)CCl)n2ccccc21` with L1210 leukemia ip in BDF1 mice, survival T/C, please?
Output: 91 % of control

----------
Recorded T/C by entry
# Test system: L1210 leukemia ip in BDF1 mice, survival T/C
# EXPERIMENT: NCI In Vivo Anticancer Drug Screen. Data for tumor model L1210 Leukemia (intraperitoneal) in B6D2F1 (BDF1) mice
# SETTINGS: endpoint: mean survival time; dose: 200.0 mg/kg/injection; schedule: Q04DX003 (ip); vehicle: acetone; higher = longer survival
Toxic doses and inconclusive results are not listed.

Example results:
O=S(=O)(C/C=C/CC(Cl)(Cl)Cl)C/C=C/CC(Cl)(Cl)Cl
95 % of control
O=C(NCCCl)n1cncn1
102 % of control

Task: Which T/C value is on record for `Cc1ccc(NN=Nc2ccccc2C#N)cc1` ?
Output: 100 % of control

Task: Next compound: `CCOC(=O)CCCCCC(C)=O`
Output: 100 % of control

Task: Same for `O=C(CCCC(O)(C1CC1)C1CC1)C1CC1`
Output: 101 % of control

Task: Okay, and `O=[N+]([O-])c1ccc(-c2ccc(-c3ccccc3)cc2)cc1` ?
Output: 86 % of control

----------
# System: L1210 leukemia ip in BDF1 mice, survival T/C
# EXPERIMENT: NCI In Vivo Anticancer Drug Screen. Data for tumor model L1210 Leukemia (intraperitoneal) in B6D2F1 (BDF1) mice
# SETTINGS: endpoint: mean survival time; dose: 100.0 mg/kg/injection; schedule: Q04DX003 (ip); vehicle: gum acacia; higher = longer survival
Inconclusive results and toxic doses are left out.
PROPERTY MEASURED: T/C

Worked examples follow.
CCc1c(Cl)c(C)cc(O)c1Cl
96 % of control
CCc1ccccc1NC(=O)Nc1cccc2ccccc12
96 % of control
O=C(COc1ccccc1)NCCc1ccccc1
97 % of control

Task: I'm curious: which T/C was measured for `CCCCNS(=O)(=O)c1ccc(Cl)c([N+](=O)[O-])c1` tested on L1210 leukemia ip in BDF1 mice, survival T/C?
Output: 103 % of control

----------
# System: L1210 leukemia ip in BDF1 mice, survival T/C
# EXPERIMENT: NCI In Vivo Anticancer Drug Screen. Data for tumor model L1210 Leukemia (intraperitoneal) in B6D2F1 (BDF1) mice
# SETTINGS: endpoint: mean survival time; dose: 400.0 mg/kg/injection; schedule: Q01DX001 (ip); vehicle: other; higher = longer survival
Toxic doses and inconclusive results are not listed.
PROPERTY MEASURED: T/C

CC(=O)Nc1c(Br)cc2c(c1Br)Cc1cc(N=Cc3ccc4c(c3)OCO4)ccc1-2
103 % of control
Cc1c(C2=CC(=O)c3ccccc3C2=O)[nH]c2ccccc12
106 % of control

Task: Query (compound): C=COC(=O)c1ccccc1 (tested in a mixture with another compound) ; field requested: T/C
Output: 86 % of control

Task: Another: Cc1ccc(NCC(O)CN2CCN(CC(O)CNc3ccc(C)cc3)CC2)cc1 (configuration not stated)
Output: 95 % of control

----------
# System: L1210 leukemia ip in BDF1 mice, survival T/C
# EXPERIMENT: NCI In Vivo Anticancer Drug Screen. Data for tumor model L1210 Leukemia (intraperitoneal) in B6D2F1 (BDF1) mice
# SETTINGS: endpoint: mean survival time; dose: 200.0 mg/kg/injection; schedule: Q04DX003 (ip); vehicle: saline with Tween-80; higher = longer survival
Inconclusive results and toxic doses are left out. Square brackets hold non-standard residues; d marks the D form. Peptide text beside a SMILES is read from it. * marks the point of attachment. ξ: configuration not given here. Cbz = O=C(OCc1ccccc1)*; ξNva = CCCC(N)C(=O)O
PROPERTY MEASURED: T/C

Worked cases, T/C given:
O=C(O)C(Br)C(Br)c1ccccc1 (stereo not given)
106 % of control
CCCCn1c2ccccc2c2ccccc21
102 % of control
O=C1c2cccc([N+](=O)[O-])c2C(=O)C1c1ccccn1 (stereo not given)
90 % of control
O=C(OC1OCC(OCc2ccccc2)C(OCc2ccccc2)C1OCc1ccccc1)c1ccccc1 (stereo not given)
94 % of control
CNC1(C(N)=O)CCN(Cc2ccccc2)CC1
101 % of control
CC(=O)C(C)=O
101 % of control

Task: Which T/C is listed for CCCC(NC(=O)CNC(=O)CNC(=O)OCc1ccccc1)C(=O)OC (stereo not drawn) (Cbz-Gly-Gly-[ξNva]-OMe) ?
Output: 97 % of control

Task: Then `CC(C)(C)CC(C)(C)c1ccc(OCCOS(=O)(=O)c2cccc([N+](=O)[O-])c2)cc1` ?
Output: 90 % of control

Task: For `Cc1ccc(C)c(CCO)c1` then?
Output: 108 % of control

Task: Same for CC1Cc2ccccc2C1=O (stereo not given)
Output: 98 % of control

Task: Now try `CCOP(=S)(OCC)SC(C)C` .
Output: 97 % of control

----------
# Tested on: L1210 leukemia ip in BDF1 mice, survival T/C
# EXPERIMENT: NCI In Vivo Anticancer Drug Screen. Data for tumor model L1210 Leukemia (intraperitoneal) in B6D2F1 (BDF1) mice
# SETTINGS: endpoint: mean survival time; dose: 75.0 mg/kg/injection; schedule: Q01DX001 (ip); vehicle: acetone; higher = longer survival
Toxic doses and inconclusive results are not listed.
Measured T/C, listed per entry for reference.

Here is how some compounds turned out for T/C.
CC1(C)C2CC1C(O)(C(=O)O)C2 (centres undefined)
94 % of control
O=C(CN1CCOCC1)Nc1ccc(S(=O)(=O)c2ccc([N+](=O)[O-])cc2)cc1
93 % of control
NC1CCCCC1I (centres undefined)
94 % of control

Task: Any idea what its T/C is? The compound is `O=C(O)Cc1c(-c2ccccn2)[nH]c2ccccc12`
Output: 103 % of control
